biological target: Complement C1s subcomponent (Homo sapiens) (UniProt P09871); test: complement C1s protease inhibitors, primary screen, biochemical, 10-compound mixtures (AID 538); details: purified C1s, fluorogenic AMC substrate, pooled mixtures; screened at 5 µM (by protocol);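 also: 0% = enzyme wells lacking compound mixture and 100% = no-enzyme blank wells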
Sequence (P09871 16-437 limits assumed): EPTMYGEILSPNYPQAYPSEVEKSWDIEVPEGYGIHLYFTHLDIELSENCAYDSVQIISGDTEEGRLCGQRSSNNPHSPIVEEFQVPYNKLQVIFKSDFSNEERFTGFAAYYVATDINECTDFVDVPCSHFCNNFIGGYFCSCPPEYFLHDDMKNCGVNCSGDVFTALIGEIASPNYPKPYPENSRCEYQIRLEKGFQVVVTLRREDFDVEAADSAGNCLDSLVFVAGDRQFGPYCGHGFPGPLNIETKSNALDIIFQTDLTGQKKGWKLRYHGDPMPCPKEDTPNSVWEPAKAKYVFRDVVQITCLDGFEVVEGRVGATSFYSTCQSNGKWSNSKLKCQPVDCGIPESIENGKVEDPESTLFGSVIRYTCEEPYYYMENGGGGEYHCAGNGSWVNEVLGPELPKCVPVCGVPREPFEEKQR
Sequence (P09871 438-688 limits assumed): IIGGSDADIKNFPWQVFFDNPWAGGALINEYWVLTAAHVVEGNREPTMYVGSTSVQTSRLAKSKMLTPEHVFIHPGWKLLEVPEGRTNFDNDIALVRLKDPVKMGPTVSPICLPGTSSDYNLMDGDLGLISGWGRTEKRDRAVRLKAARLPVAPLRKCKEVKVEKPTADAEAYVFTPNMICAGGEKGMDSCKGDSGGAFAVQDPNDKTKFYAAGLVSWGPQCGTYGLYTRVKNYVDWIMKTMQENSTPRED
Among all 62,000 compounds or so, about 100 (0.16%) were called active.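 The calls were made as follows: active = inhibition above 20% in each of the two 10-compound mixture wells holding the compound; inactive = the rest.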 Shown is part of a subset that was picked to be rich in actives.
Outcomes: active, inactive

* CC(=O)N1CCN(C(=O)c2cccc(S(=O)(=O)Nc3ccc(C)cc3)c2)CC1 | active
* COc1cccc(C2/C(=C(/O)c3ccc(F)cc3)C(=O)C(=O)N2CCN(C)C)c1 (stereo not given) | inactive
* CC(=O)N1CCN(c2cccc(C)c2C)CC1 | inactive
* CCCc1cc(=O)[nH]c(SCc2ccc(C#N)cc2)n1 | inactive
* CC(=O)N(Cc1cccs1)C1CCOC(C)(C)C1 (stereo not given) | inactive

###

Item-by-item account of mean inhibition % of two 10-compound mixtures (stronger effect = higher value)
molecular target: Complement C1s subcomponent (Homo sapiens); experiment: complement C1s protease inhibitors, primary screen, biochemical, 10-compound mixtures (AID 538); settings: purified C1s, fluorogenic AMC substrate, pooled mixtures; screened at 5 µM (by protocol);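 also: 0% = enzyme wells lacking compound mixture and 100% = no-enzyme blank wells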
Hit rate of the full screen: of about 62,000 compounds, about 100 (0.16%) were called active. The entries come from a sample that favours actives as a whole.
reported property: mean inhibition % of two 10-compound mixtures (stronger effect = higher value) (%)

- Cn1c(SCC(=O)N2CCOCC2)nnc1-c1ccc(NC(=O)c2ccccc2F)cc1: 3.6
- Cc1ccc(OCC(=O)Nc2ccc(-c3nc4ncccc4o3)cc2)cc1: -66.2
- CCOC(=O)C(CCOc1cccc(CC)c1)C(=O)OCC: -10.1
- COc1cc(C(O)c2nc3ccccc3n2C)cc(OC)c1OC (stereo not given): -4.52
- COCCCNC(=O)COc1cc(C)c(Cl)c(C)c1: -0.425
